# Lookup of reported MIC keyed by entry
- System: Staphylococcus aureus
- PROCEDURE DETAILS: Antibacterial activity against methicillin-resistant Staphylococcus aureus 78-13607A after 24 hrs by broth microdilution method
- Format: functional
Hi! Could you send only the number? It should be in µg/mL, unit omitted.

Field: example entries. Status: answers known.
CCCCCCCCCCCCO[C@@H]1O[C@@H](C)[C@H](O[C@@H]2O[C@@H](C)[C@H](OC(C)=O)[C@@H](O[C@@H]3O[C@@H](C)[C@H](OC(C)=O)[C@@H](O)[C@H]3OC(C)=O)[C@H]2O)[C@@H](O)[C@H]1O ... 8
Cc1onc(-c2ccccc2)c1C(=O)N[C@@H]1C(=O)N2[C@@H]1SC(C)(C)[C@@H]2C(=O)O ... 8
CC[C@H]1OC(=O)[C@H](C)[C@@H](O[C@H]2C[C@@](C)(OC)[C@@H](O)[C@H](C)O2)[C@H](C)[C@@H](O[C@@H]2O[C@H](C)C[C@H](N(C)C)[C@H]2O)[C@](C)(O)C[C@@H](C)C(=O)[C@H](C)[C@@H](O)[C@]1(C)O ... 0.25

Next molecule, MIC to be filled in.
State the recorded MIC for this entry: CCCCCCCCCCCCO[C@@H]1O[C@@H](C)[C@H](O[C@@H]2O[C@@H](C)[C@H](OC(C)=O)[C@@H](O[C@@H]3O[C@@H](C)[C@H](OC(C)=O)[C@@H](O[C@@H]4O[C@@H](C)[C@H](O)[C@@H](OC(C)=O)[C@H]4O)[C@H]3OC(C)=O)[C@H]2O)[C@@H](O)[C@H]1O 16

* * *

- System: Staphylococcus aureus
- PROCEDURE DETAILS: Antibacterial activity against methicillin-resistant Staphylococcus aureus 78-13607A after 24 hrs by broth microdilution method
- Type: functional
# Lookup of reported MIC keyed by entry
Don't forget the unit after the number, please.

CCC[C@@H]1C[C@@H](C(=O)N[C@@H]([C@H]2O[C@H](SC)[C@H](O)[C@@H](O)[C@H]2O)[C@H](C)Cl)N(C)C1 [CLINDAMYCIN] ... 0.12 µg/mL

Next molecule, MIC to be filled in.
State the recorded MIC for this entry: CCCCCCCCCCCCO[C@@H]1O[C@@H](C)[C@H](O[C@@H]2O[C@@H](C)[C@H](OC(C)=O)[C@@H](O[C@@H]3O[C@@H](C)[C@H](OC(C)=O)[C@@H](O[C@@H]4O[C@@H](C)[C@H](OC(C)=O)[C@@H](O)[C@H]4O)[C@H]3OC(C)=O)[C@H]2O)[C@@H](O)[C@H]1O 1 µg/mL

* * *

- System: Staphylococcus aureus
- PROCEDURE DETAILS: Antibacterial activity against methicillin-resistant Staphylococcus aureus 78-13607A after 24 hrs by broth microdilution method
- Type: functional
# Lookup of reported MIC keyed by entry

CN(C)[C@@H]1C(O)=C(C(N)=O)C(=O)[C@@]2(O)C(O)=C3C(=O)c4c(O)cccc4[C@@](C)(O)[C@H]3C[C@@H]12 ... ≤ 16 µg/mL
CO[C@H]1/C=C/O[C@@]2(C)Oc3c(C)c(O)c4c(O)c(c(/C=N/N5CCN(C)CC5)c(O)c4c3C2=O)NC(=O)/C(C)=C\C=C\[C@H](C)[C@H](O)[C@@H](C)[C@@H](O)[C@@H](C)[C@H](OC(C)=O)[C@@H]1C ... ≤ 0.25 µg/mL

Next compound, MIC to be filled in.
State the recorded MIC for this entry: O=C(O)c1cn(C2CC2)c2cc(N3CCNCC3)c(F)cc2c1=O > 4 µg/mL
